Provenance of the data: PubChem BioAssay AID1553

system: HeLa cells, 3H-mannose incorporation into glycoproteins; experiment: increase in 3H-mannose incorporation into HeLa proteins, late-stage follow-up, orthogonal assay for PMI inhibitor project, HeLa cells (AID 1553); conditions: at 100 µM;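 further: higher fold signals phosphomannose isomerase inhibition routing mannose into glycosylation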
Active and inactive are the calls of the source.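 How the source made its calls: active means compounds graded as giving a low, moderate or strong rise in tritium labelling of cell protein versus solvent control; inactive means the rest.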
Outcome codes: active, inactive

Molecule	Target Desc	Classification
O=C(NCc1ccccc1)c1cccc(-n2sc3ccccc3c2=O)c1	HeLa cells, 3H-mannose incorporation into glycoproteins	inactive
O=C(O)c1ccccc1NS(=O)(=O)c1cccc(-n2sc3ccccc3c2=O)c1	HeLa cells, 3H-mannose incorporation into glycoproteins	inactive
O=c1c2ccccc2sn1-c1cccc(I)c1	HeLa cells, 3H-mannose incorporation into glycoproteins	active
Cc1ccc(C=Nn2c(-c3ccncc3)n[nH]c2=S)cc1	HeLa cells, 3H-mannose incorporation into glycoproteins	inactive
O=[N+]([O-])c1ccc(N=c2ssnc2Cl)c2ccccc12	HeLa cells, 3H-mannose incorporation into glycoproteins	active
Clc1nss/c1=N\c1nccs1	HeLa cells, 3H-mannose incorporation into glycoproteins	inactive
COc1ccc2c(=O)n(C3CCCC3)sc2c1	HeLa cells, 3H-mannose incorporation into glycoproteins	inactive
O=c1c2ccccc2sn1-c1ccc(Cl)c(S(=O)(=O)N2CCOCC2)c1	HeLa cells, 3H-mannose incorporation into glycoproteins	inactive
Cc1ccc(N=c2ssnc2Cl)cc1[N+](=O)[O-]	HeLa cells, 3H-mannose incorporation into glycoproteins	active
O=C(O)c1cccc(-n2sc3ccccc3c2=O)c1	HeLa cells, 3H-mannose incorporation into glycoproteins	inactive
COc1ccc(OC)c(N=c2ssnc2Cl)c1	HeLa cells, 3H-mannose incorporation into glycoproteins	active
Nc1ccccc1N=c1ssnc1Cl	HeLa cells, 3H-mannose incorporation into glycoproteins	inactive
O=c1c2c([N+](=O)[O-])cc([N+](=O)[O-])cc2sn1-c1ccccc1F	HeLa cells, 3H-mannose incorporation into glycoproteins	inactive
Clc1nss/c1=N\c1nc2ccccc2s1	HeLa cells, 3H-mannose incorporation into glycoproteins	inactive
O=c1c2ccccc2sn1-c1ccc2ccccc2c1	HeLa cells, 3H-mannose incorporation into glycoproteins	active
Clc1nss/c1=N\c1nncs1	HeLa cells, 3H-mannose incorporation into glycoproteins	inactive
Cc1ccc(-n2sc3ccccc3c2=O)cc1S(=O)(=O)N1CCCCC1	HeLa cells, 3H-mannose incorporation into glycoproteins	active
Clc1ccc(N=c2ssnc2Cl)cc1	HeLa cells, 3H-mannose incorporation into glycoproteins	inactive
O=c1c2ccccc2sn1-c1ccc(F)cc1	HeLa cells, 3H-mannose incorporation into glycoproteins	active
N#Cc1ccc(N=c2ssnc2Cl)cc1	HeLa cells, 3H-mannose incorporation into glycoproteins	inactive
Clc1ccc(N=c2ssnc2Cl)cc1Cl	HeLa cells, 3H-mannose incorporation into glycoproteins	inactive
N#CC1=C2SCN(Cc3ccccc3)CN2C(=O)CC1c1ccc2c(c1)OCO2 (stereo unspecified)	HeLa cells, 3H-mannose incorporation into glycoproteins	inactive
Cc1ccc(C)c(-n2sc3cc(F)ccc3c2=O)c1	HeLa cells, 3H-mannose incorporation into glycoproteins	active
O=c1c2ccccc2sn1-c1ccccc1	HeLa cells, 3H-mannose incorporation into glycoproteins	active
CN(C)c1cccc(-n2sc3ccccc3c2=O)c1	HeLa cells, 3H-mannose incorporation into glycoproteins	inactive
Cc1ccc(N=c2ssnc2Cl)c([N+](=O)[O-])c1	HeLa cells, 3H-mannose incorporation into glycoproteins	active
Cc1cccc(-n2sc3ccccc3c2=O)c1	HeLa cells, 3H-mannose incorporation into glycoproteins	active
CN(C)c1cccc(N=c2ssnc2Cl)c1	HeLa cells, 3H-mannose incorporation into glycoproteins	inactive
S=c1nc(C2COc3ccccc3O2)[nH][nH]1 (stereo unspecified)	HeLa cells, 3H-mannose incorporation into glycoproteins	inactive
COc1ccc(-c2nc(=S)[nH][nH]2)cc1OC	HeLa cells, 3H-mannose incorporation into glycoproteins	inactive
O=c1c2c([N+](=O)[O-])cc([N+](=O)[O-])cc2sn1-c1ccc(F)cc1	HeLa cells, 3H-mannose incorporation into glycoproteins	inactive
O=c1c2ccccc2sn1-c1nccs1	HeLa cells, 3H-mannose incorporation into glycoproteins	inactive
O=c1c2cc(F)ccc2sn1-c1ccccc1	HeLa cells, 3H-mannose incorporation into glycoproteins	active
FC(F)(F)c1ccc(N=c2ssnc2Cl)cc1	HeLa cells, 3H-mannose incorporation into glycoproteins	active
Cc1ccc(C)c(N2Cc3ccccc3C2=O)c1	HeLa cells, 3H-mannose incorporation into glycoproteins	inactive
CCc1cc(CC)c(N=c2ssnc2Cl)c(CC)c1	HeLa cells, 3H-mannose incorporation into glycoproteins	active
COc1cc([N+](=O)[O-])ccc1N=c1ssnc1Cl	HeLa cells, 3H-mannose incorporation into glycoproteins	active
Cc1ccc(N=c2ssnc2Cl)cc1C	HeLa cells, 3H-mannose incorporation into glycoproteins	inactive
O=c1c2ccccc2sn1-c1cccc(Cl)c1	HeLa cells, 3H-mannose incorporation into glycoproteins	active
CN(C)S(=O)(=O)c1cccc(-n2sc3ccccc3c2=O)c1	HeLa cells, 3H-mannose incorporation into glycoproteins	active
CCSc1n[nH]c(=S)s1	HeLa cells, 3H-mannose incorporation into glycoproteins	inactive
